test: growth of efflux-deficient E. coli DRC39 – strain DRC39, OD650, 48 h, E. coli filamentation inducers, primary screen (AID 1179);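 further: screen aims at cell division blockers that make cells filament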; details: E. coli DRC39 delta-acrAB growth, higher = more signal, called active from +8 up or from −8 down
test_readout: z-score

# compound, test_readout, endpoint_result
rows = [
    ("C=CC[C@@]1(C(=O)NCCN2CCOCC2)N=C(c2ccc(OCCCO)cc2)O[C@@H]1c1ccccc1CN=[N+]=[N-]", "z-score", -0.498),
    ("COc1ccc(C(=O)Nc2cccc(CN3C(=O)[C@@]4(O[C@@H](CCn5cc([C@H](O)c6ccccc6)nn5)[C@H]([Si](C)(C)c5ccc(OC)cc5)[C@H]4C)c4ccccc43)c2)cc1", "z-score", -0.237),
    ("C=CCN1C(=O)[C@]2(Cc3ccccc31)N=C(c1ccc(OCCCO)cc1)O[C@@H]2c1ccccc1", "z-score", -0.802),
    ("CCCCCN1CC=CC23O[C@@H]4C=CCCOC(=O)C4[C@H]2C(=O)N(CCCO)[C@@H]3C1=O (some centres undefined)", "z-score", -0.251),
    ("CC(=O)n1cc(C(O)C2C=CC3C(=O)N(c4ccccc4)C(=O)C3N2Nc2ccc(C#N)cc2)c2ccccc21 (centres undefined)", "z-score", -0.119),
    ("CN1C(=O)C2C(C1=O)C1C=C(c3ccc(CO)cc3)C2C(C2CC2)N1Cc1sc2ccccc2c1Cl (centres undefined)", "z-score", 0.0618),
    ("C=CC[C@@]1(C(N)=O)N=C(c2ccc(OCCCO)cc2)O[C@@H]1c1ccccc1N=[N+]=[N-]", "z-score", -0.0342),
    ("NC(=O)[C@@]1(CCS(=O)(=O)c2ccccc2)N=C(c2ccc(OCCCO)cc2)O[C@H]1c1ccccc1", "z-score", 0.565),
    ("CC(c1ccccc1)C(O)C1C=CC2C(=O)N(c3ccccc3)C(=O)C2N1Nc1ccccc1F (centres undefined)", "z-score", 0.669),
    ("[N-]=[N+]=NCc1ccccc1[C@@H]1OC(c2ccc(OCCCO)cc2)=N[C@]1(Cc1ccccc1N=[N+]=[N-])C(N)=O", "z-score", -0.37),
    ("CC(C)(C)OC(=O)CC[C@@]1(C(=O)NCC(O)CO)N=C(c2ccc(OCCCO)cc2)O[C@@H]1c1ccccc1 (some centres undefined)", "z-score", 0.108),
    ("O=C1O[C@@H](c2ccccc2)[C@@H](c2ccccc2)N2[C@@H](c3ccc(O)cc3)[C@]3(C(=O)Nc4ccccc43)[C@@H](C(=O)N3CCCCCCC3)[C@H]12", "z-score", -1.16),
    ("O=c1cccc(-c2ccc3ccccc3c2)o1", "z-score", 0.159),
    ("C=CCC(OC(C)=O)[C@@H]1[C@@H](N(Cc2ccc(-c3cccc(C(F)(F)F)c3)o2)C(=O)c2ccc(C)cc2)c2cc(OCCCO)ccc2N1C(=O)c1ccc2ccccc2n1 (some centres undefined)", "z-score", 0.317),
    ("CO[C@H]1O[C@H](CO)[C@@H](OC(=O)Nc2ccc(C(F)(F)F)cc2)[C@H](OC(=O)Nc2ccccc2)[C@@H]1OC(=O)Nc1ccccc1", "z-score", -0.053),
    ("[N-]=[N+]=Nc1ccccc1C[C@]1(C(=O)N2CCCCC2)N=C(c2ccc(OCCCO)cc2)O[C@H]1c1ccccc1N=[N+]=[N-]", "z-score", -0.319),
    ("O=C(NCC(O)CO)[C@]1(CCS(=O)(=O)c2ccccc2)N=C(c2ccc(OCCCO)cc2)O[C@@H]1c1ccccc1 (some centres undefined)", "z-score", -0.276),
    ("Cc1ccc(S[C@]2(C(=O)NCCCN(C)C)CC(=O)N(C(C)C)[C@@H]2c2ccc(CO)cc2I)cc1", "z-score", 1.52),
    ("O=C1c2ccccc2[C@@]2(Cc3ccccc3N(Cc3ccccc3)C2=O)[C@H](c2ccc(CO)cc2)N1Cc1ccccc1C(F)(F)F", "z-score", 0.429),
    ("C=CCC(OC(C)=O)[C@@H]1[C@@H](N(Cc2ccc(-c3cccc(C(F)(F)F)c3)o2)C(=O)Cc2ccc(OC)cc2)c2cc(OCCCO)ccc2N1C(=O)Cc1ccc(OC)cc1 (some centres undefined)", "z-score", 0.814),
    ("COc1ccc([Si](C)(C)[C@H]2[C@H](CCO)O[C@@]3(C(=O)N(Cc4cccc(N5C(=O)c6cccc7cccc5c67)c4)c4ccccc43)[C@@H]2C)cc1", "z-score", -0.511),
    ("COC(=O)C(CC#Cc1ccc2c(c1)[C@]1(C(=O)N2)[C@H](C(=O)N2CCCCCCC2)[C@H]2C(=O)O[C@H](c3ccccc3)[C@H](c3ccccc3)N2[C@@H]1c1ccccc1OCCO)C(=O)OC", "z-score", -0.513),
    ("COc1ccc([Si](C)(C)[C@H]2[C@H](CC(=O)N3Cc4ccccc4C[C@H]3CO)O[C@@]3(C(=O)N(Cc4cccc(I)c4)c4ccccc43)[C@@H]2C)cc1", "z-score", -0.152),
    ("COC(=O)[C@@]1(Cc2ccc(OC)cc2)[C@H]2c3cc(C(=O)N4CCCC4)n(CCN4CCOCC4)c3C[C@H]2CN1C(=O)c1ccccc1", "z-score", 0.484),
    ("[N-]=[N+]=Nc1ccccc1[C@@H]1OC(c2ccc(OCCCO)cc2)=N[C@]1(CCS(=O)(=O)c1ccccc1)C(=O)O", "z-score", 0.82),
    ("C=C(CCCC)C(=O)CC[C@H](OC(=O)c1ccccc1-c1ccccc1C(=O)O)c1ccc(CO)o1", "z-score", 0.16),
    ("O=C1c2ccccc2[C@](Cc2ccccc2I)(C(=O)O)[C@H](c2ccc(CO)cc2)N1Cc1ccccc1C(F)(F)F", "z-score", -0.0555),
    ("CC(C)N1C(=O)c2ccccc2[C@](C)(C(=O)NC2CC2)[C@@H]1c1ccc(CO)cc1", "z-score", 1.5),
    ("[N-]=[N+]=NCc1ccccc1C[C@]1(C(=O)NCc2ccccc2)COC(c2ccc(OCCCO)cc2)=N1", "z-score", 0.376),
]

Where these numbers come from: PubChem BioAssay
